Reported inhibition values for the following compounds.
Molecular target: NUAK family SNF1-like kinase 1 (Homo sapiens)
Sequence (whole entry): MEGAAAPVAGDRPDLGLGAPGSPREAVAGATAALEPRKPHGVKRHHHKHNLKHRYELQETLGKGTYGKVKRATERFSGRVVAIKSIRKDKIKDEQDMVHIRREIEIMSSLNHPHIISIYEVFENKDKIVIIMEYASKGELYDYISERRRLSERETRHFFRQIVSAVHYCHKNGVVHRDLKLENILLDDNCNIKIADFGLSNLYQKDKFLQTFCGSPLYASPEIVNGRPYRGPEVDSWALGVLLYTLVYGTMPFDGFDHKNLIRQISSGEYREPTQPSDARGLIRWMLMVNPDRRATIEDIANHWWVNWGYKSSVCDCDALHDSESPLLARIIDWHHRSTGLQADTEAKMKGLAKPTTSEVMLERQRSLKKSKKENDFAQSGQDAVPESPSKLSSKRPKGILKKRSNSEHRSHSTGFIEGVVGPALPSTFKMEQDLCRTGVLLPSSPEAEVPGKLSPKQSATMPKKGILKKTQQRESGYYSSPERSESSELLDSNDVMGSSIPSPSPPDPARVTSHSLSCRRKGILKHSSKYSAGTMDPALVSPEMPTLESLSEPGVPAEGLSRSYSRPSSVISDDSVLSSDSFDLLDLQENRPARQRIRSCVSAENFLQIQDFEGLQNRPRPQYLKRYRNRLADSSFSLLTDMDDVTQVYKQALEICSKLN
Conditions: at 1 µM
Description: GSK_PKIS: ARK5 mean inhibition at 1 uM [Nanosyn]
Only the number, expressed in %, is required.

Given the entry COc1ccc(-c2ccncc2)cc1C(N)=O , report its measured inhibition.
5.44

Another compound: CCN1CCC(CC(=O)Nc2n[nH]c3nc(-c4cccs4)c(Br)cc23)CC1
9.14

Another compound: COC(=O)Nc1nc2cc(Oc3ccc(NC(=O)Nc4cccc(C(=O)O)c4)cc3)ccc2[nH]1
8

More entries:
Given the entry NCc1ccc(-c2nc(-c3ccc(Cl)c(O)c3)c(-c3ccncc3)[nH]2)cc1 , report its measured inhibition.
3.79

Another compound: COc1ccccc1Nc1ncc(-c2ccccc2)o1
-4.21

Another compound: O=C1NC(=O)C(c2ccc(Cl)cc2)=C1Nc1ccc(Cl)c(C(=O)O)c1
3.54

Another compound: CC1=C(C(=O)Nc2ccc3[nH]ncc3c2)C(c2ccc(F)cc2)NC(=O)N1 (stereo not given)
11.3

Another compound: Cc1ccc(C(=O)NC2CCCCC2)cc1-c1ccc(C(=O)NCC2CC2)cc1
2.62

Another compound: [O-][S+]1CCN(Cc2ccc(-c3ccc4ncnc(Nc5ccc(OCc6ccccc6)c(F)c5)c4c3)o2)CC1
2.16

Another compound: CCn1c(-c2nonc2N)nc2cncc(C(=O)N3CCNCC3)c21
2.51
